For each of the compounds below, state its Plant response rating, Bermudagrass.
- System: bermudagrass (Cynodon dactylon)
- assay.protocol: Test C preemergence
- Assay type: in vivo
- experimental.conditions: Rate 62 g/ha; scale 0 to 100, 0 no effect, 100 complete control
The answer should be written as a number, with no unit following it.

q: Returns the measured Plant response rating, Bermudagrass for the input compound. Input: CC(C)c1ccn(C2OCN(c3cccc(C(F)(F)F)c3)C2=O)n1 (stereo not drawn)
a: 90

q: Returns the measured Plant response rating, Bermudagrass for the input compound. Input: CC(C)(C)c1ccn(C2CCN(c3cccc(OC(F)F)c3)C2=O)n1 (stereo not drawn)
a: 100

q: Returns the measured Plant response rating, Bermudagrass for the input compound. Input: CCC(C)c1ccn(C2SCN(c3cccc(C(F)(F)F)c3)C2=O)n1 (stereo not drawn)
a: 70

q: Returns the measured Plant response rating, Bermudagrass for the input compound. Input: CCC(CC)c1ccn(C2SCN(c3cccc(C(F)(F)F)c3)C2=O)n1 (stereo not drawn)
a: 100

q: Returns the measured Plant response rating, Bermudagrass for the input compound. Input: CC(C)(C)c1ccn(C2CCN(c3cccc(Br)c3)C2=O)n1 (stereo not drawn)
a: 90

q: Returns the measured Plant response rating, Bermudagrass for the input compound. Input: CCC(C)c1ccn(C2SCN(c3cccc(OC(F)(F)F)c3)C2=O)n1 (stereo not drawn)
a: 80

* * *

- Test system: crabgrass (Digitaria sanguinalis)
- assay.protocol: Test B postemergence
- Format: in vivo
- experimental.conditions: Rate 125 g/ha, scale 0 (no effect) to 100 (complete control), 13 to 15 days
For each of the compounds below, state its Plant response rating, Crabgrass.

q: Returns the measured Plant response rating, Crabgrass for the input compound. Input: CC(C)(C)c1ccn(C2C(=O)N(c3cccc(C(F)(F)F)c3)C[S+]2[O-])n1 (stereo not drawn) [Compound 29]
a: 0

q: Returns the measured Plant response rating, Crabgrass for the input compound. Input: CCC(C)Oc1ccn(C2CCN(c3cccc(C(F)(F)F)c3)C2=O)n1 (stereo not drawn) [Compound 58]
a: 0

q: Returns the measured Plant response rating, Crabgrass for the input compound. Input: CC(C)Oc1cccc(N2CCC(n3ccc(C(C)C)n3)C2=O)c1 (stereo not drawn) [Compound 82]
a: 0

q: Returns the measured Plant response rating, Crabgrass for the input compound. Input: CCCOc1cc(N2CCC(n3ccc(C(C)(C)C)n3)C2=O)ccc1C (stereo not drawn) [Compound 107]
a: 0

q: Returns the measured Plant response rating, Crabgrass for the input compound. Input: O=C1C(n2ccc(C3CC3)n2)SCN1c1cccc(C(F)(F)F)c1 (stereo not drawn) [Compound 26]
a: 0

q: Returns the measured Plant response rating, Crabgrass for the input compound. Input: O=C1C(n2ccc(C3CC3)n2)CCN1c1cccc(C(F)(F)F)c1 (stereo not drawn) [Compound 8]
a: 0

q: Returns the measured Plant response rating, Crabgrass for the input compound. Input: CC(C)c1ccn(C2SCN(c3cccc(OC(F)(F)F)c3)C2=O)n1 (stereo not drawn) [Compound 31]
a: 0

q: Returns the measured Plant response rating, Crabgrass for the input compound. Input: CC(C)(C)c1ccn(C2CCN(c3cccc([S+]([O-])C(F)(F)F)c3)C2=O)n1 (stereo not drawn) [Compound 101]
a: 0

q: Returns the measured Plant response rating, Crabgrass for the input compound. Input: CCC(C)c1ccn(C2OCN(c3cccc(OC(F)(F)F)c3)C2=O)n1 (stereo not drawn) [Compound 67]
a: 50

q: Returns the measured Plant response rating, Crabgrass for the input compound. Input: O=C1C(n2cccn2)CCN1c1cccc(C(F)(F)F)c1 (stereo not drawn) [Compound 15]
a: 20

q: Returns the measured Plant response rating, Crabgrass for the input compound. Input: CCC(CC)c1ccn(C2CCN(c3cccc(OC)c3)C2=O)n1 (stereo not drawn) [Compound 96]
a: 20

q: Returns the measured Plant response rating, Crabgrass for the input compound. Input: CC(C)(C)c1ccn(C2SCN(c3cccc(C(F)(F)F)c3)C2=O)n1 (stereo not drawn) [Compound 1]
a: 0
